pIC50: −log10 of the molar value.
Collected literature values of pIC50 measured for Prolyl endopeptidase (Sus scrofa).
MEASURED_PROPERTY: pIC50

[[record]]
compound = "O=C(c1nc2ccccc2s1)[C@@H]1CCCN1C(=O)[C@@H]1CCCN1C(=O)CCCc1ccccc1"
measured_property = "pIC50"
meas_value = 8.40

[[record]]
compound = "O=C([C@@H]1C[C@H](n2cc(-c3ccc(F)c(F)c3)nn2)CN1C(=O)CCCc1ccccc1)N1CCCC1"
measured_property = "pIC50"
meas_value = 7.76

[[record]]
compound = "N#C[C@@H]1CCCN1C(=O)[C@@H]1CCCN1C(=O)c1cccc(C(=O)N2CCCC2)c1"
measured_property = "pIC50"
meas_value = 8.16

[[record]]
compound = "N#C[C@H]1CCCN1C(=O)[C@@H]1CCCN1C(=O)c1cccc(C(=O)N2CCC[C@@H]2C(=O)C2CCCCC2)c1"
measured_property = "pIC50"
meas_value = 9.14

[[record]]
compound = "O=C(CCC(=O)N1CCC[C@H]1C(=O)N1CCCC1)N1CCCCCC1"
measured_property = "pIC50"
meas_value = 7.39

[[record]]
compound = "N#C[C@@H]1CCCN1C(=O)[C@@H]1CCCN1C(=O)c1ccccc1C(=O)N1CCCC1"
measured_property = "pIC50"
meas_value = 5.82

[[record]]
compound = "N#C[C@@H]1CCCN1C(=O)[C@@H]1CCCN1C(=O)CCCC(=O)N1CCCCCC1"
measured_property = "pIC50"
meas_value = 8.92

[[record]]
compound = "O=C(c1nc2ccccc2s1)[C@@H]1CCCN1C(=O)[C@@H]1CCCN1C(=O)OCc1ccccc1"
measured_property = "pIC50"
meas_value = 8.30

[[record]]
compound = "O=C(c1ccccn1)[C@@H]1CCCN1C(=O)[C@@H]1CCCN1C(=O)CCCc1ccccc1"
measured_property = "pIC50"
meas_value = 8.16

[[record]]
compound = "O=C(c1nc2ccccc2o1)[C@@H]1CCCN1C(=O)[C@@H]1CCCN1CCCc1ccccc1"
measured_property = "pIC50"
meas_value = 8.25

[[record]]
compound = "N#C[C@H]1CCCN1C(=O)[C@@H]1CCCN1C(=O)c1cccc(C(=O)N2CCC[C@@H]2C(=O)c2ccccc2)c1"
measured_property = "pIC50"
meas_value = 8.89

[[record]]
compound = "CC(=O)[C@@H]1CCCN1C(=O)c1cccc(C(=O)N2CCC[C@H]2C(=O)N2CCCC2)c1"
measured_property = "pIC50"
meas_value = 7.19

[[record]]
compound = "CC(C)C(=O)[C@@H]1CCCN1C(=O)c1cccc(C(=O)N2CCC[C@H]2C(=O)N2CCC[C@H]2C#N)c1"
measured_property = "pIC50"
meas_value = 8.80

[[record]]
compound = "C[C@H](NC(=O)c1cccc(C(=O)N2CCC[C@H]2C(=O)N2CCCC2)c1)C(=O)N1CCCC1"
measured_property = "pIC50"
meas_value = 7.41

[[record]]
compound = "CC(NC(=O)[C@H](CC(=O)N(C)C)NC(=O)[C@@H](NC(=O)CC(C)(C)C)C(C)(C)C)C(=O)c1nc2ccccc2o1 (stereo partly specified)"
measured_property = "pIC50"
meas_value = 7.10

[[record]]
compound = "COC(=O)[C@H]1CCCN1C(=O)c1cccc(C(=O)N2CCC[C@H]2C(=O)N2CCCC2)c1"
measured_property = "pIC50"
meas_value = 7.27

